experimental system: DNA-PK(h) (Homo sapiens)
method: Evaluation of inhibitory activity against DNA-PK (HTRF kinase assay, GST-cMyc-p53 substrate)
Assay type: biochemical
experimental parameters: compound concentration 0.01 μM; read-out: EXP_VALUE(% Inhibition) DNA-PK(h) 0.01 μM
observation type: inhibition at 0.01 µM (%)
I only need the number, in %, no unit after it.

Recorded results for 5 compounds are shown here.
- smiles data: "C[C@H](Nc1ncnc2[nH]ccc(=O)c12)c1c(Cl)c2cccc(-c3ccc4nncn4c3)c2c(=O)n1-c1ccccc1"
  inhibition at 0.01 µM / %: 60
- smiles data: "COc1cncc(-c2cccc3c(Cl)c([C@H](C)Nc4ncnc5[nH]ccc(=O)c45)n(-c4ccccc4)c(=O)c23)n1"
  inhibition at 0.01 µM / %: 66
- smiles data: "C[C@H](Nc1ncnc2[nH]ccc(=O)c12)c1c(Cl)c2cccc(-c3ccc4c(c3)ncn4C)c2c(=O)n1-c1ccccc1"
  inhibition at 0.01 µM / %: 77
- smiles data: "C[C@H](Nc1ncnc2[nH]ccc(=O)c12)c1c(Cl)c2cccc(-c3nc4ccccc4o3)c2c(=O)n1-c1ccccc1"
  inhibition at 0.01 µM / %: 64
- smiles data: "C[C@H](Nc1ncnc2[nH]ccc(=O)c12)c1c(Cl)c2cccc(NS(C)(=O)=O)c2c(=O)n1-c1ccccc1"
  inhibition at 0.01 µM / %: 44

What does the data say about its inhibition at 0.01 µM? Entry: `C[C@H](Nc1ncnc2[nH]ccc(=O)c12)c1c(Cl)c2cccc(-c3ccc(N)cc3)c2c(=O)n1-c1ccccc1`
78

Similarly, `C[C@H](Nc1ncnc2[nH]ccc(=O)c12)c1c(Cl)c2cccc(-c3cnc(N4CCC4)nc3)c2c(=O)n1-c1ccccc1` ?
72

Also, `COc1ncc(-c2cccc3c(Cl)c([C@H](C)Nc4ncnc5[nH]ccc(=O)c45)n(-c4ccccc4)c(=O)c23)nc1OC` please.
61

====

Reported inhibition at 0.1 µM is given for each of the following molecules.
experimental system: DNA-PK(h) (Homo sapiens, UniProt P78527)
method: Evaluation of inhibitory activity against DNA-PK (HTRF kinase assay, GST-cMyc-p53 substrate)
Format: biochemical
experimental parameters: compound concentration 0.1 μM; read-out: EXP_VALUE(% Inhibition) DNA-PK(h) 0.1 μM
Numeric answer only, unit % assumed.

- molecule: "COc1ccc(-c2cccc3c(Cl)c([C@H](C)Nc4ncnc5[nH]ccc(=O)c45)n(-c4ccccc4)c(=O)c23)cc1 [Example 64]"
  inhibition at 0.1 µM, %: 86

Value wanted: inhibition at 0.1 µM (DNA-PK(h) (Homo sapiens, UniProt P78527)) of entry C[C@H](Nc1ncnc2[nH]ccc(=O)c12)c1c(Cl)c2cccc(-c3ccc4[nH]cnc4c3)c2c(=O)n1-c1ccccc1 [Example 125]
97

Input C[C@H](Nc1ncnc2[nH]ccc(=O)c12)c1c(Cl)c2cccc(-c3ccc(C(N)=O)cc3)c2c(=O)n1-c1ccccc1 [Example 80]
106

Next molecule up: COc1cc(-c2cccc3c(Cl)c([C@H](C)Nc4ncnc5[nH]ccc(=O)c45)n(-c4ccccc4)c(=O)c23)ccc1Cl [Example 99]
95

====

experimental system: PI3K-δ (PI3K(p1108/p857) (h)) (Homo sapiens, UniProt O00329)
Sequence (O00329 whole entry): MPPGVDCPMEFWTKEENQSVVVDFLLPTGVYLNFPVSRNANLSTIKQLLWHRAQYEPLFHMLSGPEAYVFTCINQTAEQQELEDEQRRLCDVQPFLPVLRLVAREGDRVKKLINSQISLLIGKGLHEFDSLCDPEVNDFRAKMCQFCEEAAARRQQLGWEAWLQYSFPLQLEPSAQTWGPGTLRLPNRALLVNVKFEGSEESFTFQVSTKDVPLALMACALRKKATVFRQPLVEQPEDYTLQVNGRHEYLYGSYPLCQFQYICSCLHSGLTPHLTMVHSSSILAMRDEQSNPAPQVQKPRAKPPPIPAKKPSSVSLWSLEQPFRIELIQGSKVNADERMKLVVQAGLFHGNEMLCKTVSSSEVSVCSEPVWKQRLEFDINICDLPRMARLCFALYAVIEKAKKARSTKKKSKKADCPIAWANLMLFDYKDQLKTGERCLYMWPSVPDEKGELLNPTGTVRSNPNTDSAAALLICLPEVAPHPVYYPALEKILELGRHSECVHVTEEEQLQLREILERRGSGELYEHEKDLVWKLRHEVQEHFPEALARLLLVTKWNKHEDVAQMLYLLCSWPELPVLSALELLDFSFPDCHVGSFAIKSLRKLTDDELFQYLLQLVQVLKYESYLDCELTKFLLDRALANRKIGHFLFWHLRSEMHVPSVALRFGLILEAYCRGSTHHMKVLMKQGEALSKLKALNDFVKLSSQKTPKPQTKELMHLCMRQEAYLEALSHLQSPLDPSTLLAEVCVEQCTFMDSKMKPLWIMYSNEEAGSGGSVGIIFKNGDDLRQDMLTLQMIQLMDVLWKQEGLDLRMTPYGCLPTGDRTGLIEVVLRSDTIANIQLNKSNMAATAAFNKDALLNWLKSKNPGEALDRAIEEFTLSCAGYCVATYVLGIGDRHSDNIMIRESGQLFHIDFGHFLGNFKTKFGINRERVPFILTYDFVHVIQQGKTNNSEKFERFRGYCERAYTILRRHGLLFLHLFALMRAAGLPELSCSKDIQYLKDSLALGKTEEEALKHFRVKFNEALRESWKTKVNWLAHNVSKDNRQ
Sequence (P27986 whole entry partner): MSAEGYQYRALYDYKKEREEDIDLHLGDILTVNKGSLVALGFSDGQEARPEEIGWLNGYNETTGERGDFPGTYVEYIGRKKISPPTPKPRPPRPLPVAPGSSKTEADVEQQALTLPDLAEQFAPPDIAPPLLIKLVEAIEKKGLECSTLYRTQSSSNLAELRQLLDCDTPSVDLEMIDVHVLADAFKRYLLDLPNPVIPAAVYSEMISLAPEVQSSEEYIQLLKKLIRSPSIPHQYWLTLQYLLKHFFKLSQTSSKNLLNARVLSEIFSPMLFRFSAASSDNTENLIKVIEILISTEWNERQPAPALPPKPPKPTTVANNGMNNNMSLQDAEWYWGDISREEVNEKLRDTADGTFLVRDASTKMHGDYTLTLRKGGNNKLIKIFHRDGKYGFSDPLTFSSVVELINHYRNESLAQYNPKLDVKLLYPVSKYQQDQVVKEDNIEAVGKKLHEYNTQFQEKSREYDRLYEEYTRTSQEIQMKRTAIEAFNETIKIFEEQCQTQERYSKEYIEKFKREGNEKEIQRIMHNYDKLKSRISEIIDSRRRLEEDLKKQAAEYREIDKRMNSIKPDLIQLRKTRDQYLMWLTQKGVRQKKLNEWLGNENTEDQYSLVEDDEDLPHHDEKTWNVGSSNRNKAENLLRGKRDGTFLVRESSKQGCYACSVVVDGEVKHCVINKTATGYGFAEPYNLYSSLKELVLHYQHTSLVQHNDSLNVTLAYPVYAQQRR
method: Evaluation of inhibitory activity against PI3K-δ (HTRF kinase assay)
Assay type: biochemical
experimental parameters: compound concentration 0.01 μM; read-out: EXP_VALUE(% Inhibition) PI3K-δ 0.01 μM
Hi, to clarify the labels: 1 covers inhibition at 0.01 µM from 60% upward, -1 covers anything below 60%.

// below: answered compounds
- smiles data: "CC(=O)c1cccc2c(Cl)c([C@H](C)Nc3ncnc4[nH]ccc(=O)c34)n(-c3ccccc3)c(=O)c12"
  assigned category: 1
- smiles data: "C[C@H](Nc1ncnc2[nH]ccc(=O)c12)c1c(Cl)c2cccc(CO)c2c(=O)n1-c1ccccc1"
  assigned category: 1
- smiles data: "C[C@H](Nc1ncnc2[nH]ccc(=O)c12)c1c(Cl)c2cccc(-c3cnc(C#N)nc3)c2c(=O)n1-c1ccccc1"
  assigned category: 1

Determine whether this compound has inhibition at 0.01 µM no lower than 60%: `C[C@H](Nc1ncnc2[nH]ccc(=O)c12)c1c(Cl)c2cccc(-c3ccc(OCc4ccccc4)nc3)c2c(=O)n1-c1ccccc1`
-1

Now give it for `CC(C)C1CCN(c2cccc3c(Cl)c([C@H](C)Nc4ncnc5[nH]ccc(=O)c45)n(-c4ccccc4)c(=O)c23)CC1` too.
-1

====

experimental system: DNA-PK(h) (Homo sapiens, UniProt P78527)
method: Evaluation of inhibitory activity against DNA-PK (HTRF kinase assay, GST-cMyc-p53 substrate)
Format: biochemical
experimental parameters: compound at 0.1 μM; read-out: EXP_VALUE(% Inhibition) DNA-PK(h) 0.1 μM
observation type: inhibition at 0.1 µM (%)
Give the quantity in %, number only.

- compound: "C[C@H](Nc1ncnc2[nH]ccc(=O)c12)c1c(Cl)c2cccc(Oc3ccncc3)c2c(=O)n1-c1ccccc1"
  experimental system: "DNA-PK(h) (Homo sapiens, UniProt P78527)"
  inhibition at 0.1 µM (%): 13

Would you kindly share the measured inhibition at 0.1 µM for C[C@H](Nc1ncnc2[nH]ccc(=O)c12)c1c(Cl)c2cccc([S+]([O-])C3COC3)c2c(=O)n1-c1ccccc1 (some centres unmarked) ?
57

Repeat with `C[C@H](Nc1ncnc2[nH]ccc(=O)c12)c1cc2cccc(-c3cnc(C(F)(F)F)nc3)c2c(=O)n1-c1ccccc1`
4

Repeat with `C[C@H](Nc1ncnc2[nH]ccc(=O)c12)c1c(Cl)c2cccc(S)c2c(=O)n1-c1ccccc1`
7

Ok, now `C[C@H](Nc1ncnc2[nH]ccc(=O)c12)c1c(Cl)c2cccc([S@+]([O-])c3ccc(OC(F)(F)F)cc3)c2c(=O)n1-c1ccccc1`
15

Same lookup for `CC(C)Oc1cnc(-c2cccc3c(Cl)c([C@H](C)Nc4ncnc5[nH]ccc(=O)c45)n(-c4ccccc4)c(=O)c23)cn1` , please.
18

====

inhibition at 0.1 µM reference
experimental system: PI3K-δ (PI3K(p1108/p857) (h)) (Homo sapiens)
method: Evaluation of inhibitory activity against PI3K-δ (HTRF kinase assay)
Type: biochemical
experimental parameters: compound concentration 0.1 μM; read-out: EXP_VALUE(% Inhibition) PI3K-δ 0.1 μM
Use % as the unit, but write only the number.

- molecule: "C[C@H](Nc1ncnc2[nH]ccc(=O)c12)c1c(Cl)c2cccc(N3CCN(c4ccccc4O)CC3)c2c(=O)n1-c1ccccc1"
  observation type: "inhibition at 0.1 µM"
  assay value: 78
- molecule: "Cc1c(-c2cccc3c(Cl)c([C@H](C)Nc4ncnc5[nH]ccc(=O)c45)n(-c4ccccc4)c(=O)c23)cnn1C"
  observation type: "inhibition at 0.1 µM"
  assay value: 94
- molecule: "C[C@H](Nc1ncnc2[nH]ccc(=O)c12)c1cc2cccc(-c3cnn(C)c3)c2c(=O)n1-c1ccccc1"
  observation type: "inhibition at 0.1 µM"
  assay value: 108
- molecule: "C[C@H](Nc1ncnc2[nH]ccc(=O)c12)c1c(Cl)c2cccc(-c3ccc(-c4ccncc4)cc3)c2c(=O)n1-c1ccccc1"
  observation type: "inhibition at 0.1 µM"
  assay value: 103
- molecule: "C[C@H](Nc1ncnc2[nH]ccc(=O)c12)c1c(Cl)c2cccc(-c3ccc(N4CCN(C(=O)OC(C)(C)C)CC4)cc3)c2c(=O)n1-c1ccccc1"
  observation type: "inhibition at 0.1 µM"
  assay value: 81
- molecule: "C[C@H](Nc1ncnc2[nH]ccc(=O)c12)c1c(Br)c2cccc(-c3ccc(F)cc3)c2c(=O)n1-c1ccccc1"
  observation type: "inhibition at 0.1 µM"
  assay value: 96
- molecule: "C[C@H](Nc1ncnc2[nH]ccc(=O)c12)c1c(Cl)c2cccc(N3CCc4ccsc4C3)c2c(=O)n1-c1ccccc1"
  observation type: "inhibition at 0.1 µM"
  assay value: 72
- molecule: "COc1cc(-c2cccc3c(Cl)c([C@H](C)Nc4ncnc5[nH]ccc(=O)c45)n(-c4ccccc4)c(=O)c23)cc(OC)c1OC"
  observation type: "inhibition at 0.1 µM"
  assay value: 103

Which inhibition at 0.1 µM is listed for `C[C@H](Nc1ncnc2[nH]ccc(=O)c12)c1c(Cl)c2cccc(N3CCC[C@H]3CN3CCCC3)c2c(=O)n1-c1ccccc1` ?
19

Would you kindly repeat that for C[C@H](Nc1ncnc2[nH]ccc(=O)c12)c1c(Cl)c2cccc(N3CC4CCCC4C3)c2c(=O)n1-c1ccccc1 (stereo partly shown) ?
45

And then `C[C@H](Nc1ncnc2[nH]ccc(=O)c12)c1c(Cl)c2cccc(NCc3cccnc3)c2c(=O)n1-c1ccccc1` , what is it?
58

Repeat with `C[C@H](Nc1ncnc2[nH]ccc(=O)c12)c1c(Cl)c2cccc(-n3cccn3)c2c(=O)n1-c1ccccc1`
83.3

// query: C[C@H](Nc1ncnc2[nH]ccc(=O)c12)c1c(Cl)c2cccc(C#Cc3ccc(C(F)(F)F)cc3)c2c(=O)n1-c1ccccc1 [Example 315, 2,2,2-trifluoroacetate]
89

Same question, `C[C@H](Nc1ncnc2[nH]ccc(=O)c12)c1c(Cl)c2cccc(-c3cccc4[nH]ccc34)c2c(=O)n1-c1ccccc1` this time
92

Cool, now `C[C@H](Nc1ncnc2[nH]ccc(=O)c12)c1c(Cl)c2cccc(-c3cc(O)cc(F)c3)c2c(=O)n1-c1ccccc1`
102

// next record C[C@H](Nc1ncnc2[nH]ccc(=O)c12)c1c(Cl)c2cccc(N3CC4CC=CCC4C3)c2c(=O)n1-c1ccccc1 (stereo partly shown)
76

What would you report for `C[C@H](Nc1ncnc2[nH]ccc(=O)c12)c1c(Cl)c2cccc(NCCc3ccc(Cl)cc3)c2c(=O)n1-c1ccccc1` ?
95

Ok, now `C[C@H](Nc1ncnc2[nH]ccc(=O)c12)c1c(Cl)c2cccc(-c3ccc(C#N)cc3)c2c(=O)n1-c1ccccc1`
116

Thanks! And `Cc1ncccc1-c1cccc2c(Cl)c([C@H](C)Nc3ncnc4[nH]ccc(=O)c34)n(-c3ccccc3)c(=O)c12` ?
97
